ASSAYED_TARGET: Env of HIV-1 strain 3415.v1.c1 (HIV-1)
ASSAY_TEXT: cell-based or functional assay

BINDER	neutralization IC50
γ46κ61 (antibody, V domains shown) VH: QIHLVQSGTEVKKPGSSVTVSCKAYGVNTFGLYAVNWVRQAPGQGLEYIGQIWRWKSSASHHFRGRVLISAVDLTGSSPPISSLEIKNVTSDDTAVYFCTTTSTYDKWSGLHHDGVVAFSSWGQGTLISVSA VL: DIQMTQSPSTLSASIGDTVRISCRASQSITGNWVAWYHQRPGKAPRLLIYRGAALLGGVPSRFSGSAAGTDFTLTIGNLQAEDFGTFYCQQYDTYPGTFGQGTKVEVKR	> 15 µg/mL
γ52κ3 (antibody, V domains shown) VH: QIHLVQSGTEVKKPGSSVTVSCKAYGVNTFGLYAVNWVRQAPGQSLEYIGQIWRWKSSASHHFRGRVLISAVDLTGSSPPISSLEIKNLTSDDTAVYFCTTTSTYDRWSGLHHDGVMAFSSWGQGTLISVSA VL: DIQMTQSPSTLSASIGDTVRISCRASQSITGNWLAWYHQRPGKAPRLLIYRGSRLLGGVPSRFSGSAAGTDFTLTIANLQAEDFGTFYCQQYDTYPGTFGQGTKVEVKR	> 15 µg/mL
γ44κ11 (antibody, V domains shown) VH: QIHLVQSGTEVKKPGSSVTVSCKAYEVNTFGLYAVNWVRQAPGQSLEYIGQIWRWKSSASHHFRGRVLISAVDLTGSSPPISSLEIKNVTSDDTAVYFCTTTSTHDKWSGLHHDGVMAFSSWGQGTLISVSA VL: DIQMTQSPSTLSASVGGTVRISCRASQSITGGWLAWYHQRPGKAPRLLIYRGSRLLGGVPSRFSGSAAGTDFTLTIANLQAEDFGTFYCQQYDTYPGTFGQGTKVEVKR	> 15 µg/mL
